Origin of the recorded values: paper PMC2606940

Overview of recorded pIC50 for various compounds
# targetOrSystem: CLC-0 E166A mutant (Torpedo marmorata, UniProt P21564, C212S/E166A)
# Sequence (P21564 1-805 E166A/C212S): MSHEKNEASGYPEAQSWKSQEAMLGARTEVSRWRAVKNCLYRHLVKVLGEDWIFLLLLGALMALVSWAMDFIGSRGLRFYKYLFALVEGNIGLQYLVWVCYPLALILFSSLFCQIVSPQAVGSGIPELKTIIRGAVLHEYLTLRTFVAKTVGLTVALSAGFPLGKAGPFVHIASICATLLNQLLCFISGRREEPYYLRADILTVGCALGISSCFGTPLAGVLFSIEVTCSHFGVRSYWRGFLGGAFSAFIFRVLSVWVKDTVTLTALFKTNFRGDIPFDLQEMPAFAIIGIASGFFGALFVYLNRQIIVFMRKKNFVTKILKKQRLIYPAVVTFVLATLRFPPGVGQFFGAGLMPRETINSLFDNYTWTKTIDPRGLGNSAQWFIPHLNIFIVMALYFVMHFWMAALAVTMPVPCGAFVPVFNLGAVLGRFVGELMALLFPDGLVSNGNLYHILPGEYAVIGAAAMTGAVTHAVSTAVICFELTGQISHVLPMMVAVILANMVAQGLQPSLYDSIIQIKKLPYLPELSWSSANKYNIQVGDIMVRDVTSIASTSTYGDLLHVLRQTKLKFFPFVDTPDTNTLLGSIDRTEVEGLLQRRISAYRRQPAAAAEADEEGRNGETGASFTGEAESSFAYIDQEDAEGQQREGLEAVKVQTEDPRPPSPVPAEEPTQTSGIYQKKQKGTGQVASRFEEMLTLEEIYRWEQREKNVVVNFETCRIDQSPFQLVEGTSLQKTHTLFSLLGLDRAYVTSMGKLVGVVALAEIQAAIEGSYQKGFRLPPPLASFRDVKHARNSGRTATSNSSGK
# Type: cell-based
# experimentalParameters: read-out: Apparent affinity (K1/2); −100 mV
pIC50: −log10 of the molar value.
readoutName: pIC50

compound: O=C(O)COc1ccc(Cl)cc1 [CPA, p-chlorophenoxy acetate]
targetOrSystem: CLC-0 E166A mutant (Torpedo marmorata, UniProt P21564, C212S/E166A)
readoutName: pIC50
recordedNumber: 4.34

compound: CCCCCCCC(=O)O [octanoate]
targetOrSystem: CLC-0 E166A mutant (Torpedo marmorata, UniProt P21564, C212S/E166A)
readoutName: pIC50
recordedNumber: 5.09
